The measured values listed here are drawn from patent US20090238808A1.

testedSystem: GSK3Aps (Mus musculus, UniProt Q2NL51)
Construct: from tissue; host or cells: mouse brain
Sequence (Q2NL51 2-490 limits assumed): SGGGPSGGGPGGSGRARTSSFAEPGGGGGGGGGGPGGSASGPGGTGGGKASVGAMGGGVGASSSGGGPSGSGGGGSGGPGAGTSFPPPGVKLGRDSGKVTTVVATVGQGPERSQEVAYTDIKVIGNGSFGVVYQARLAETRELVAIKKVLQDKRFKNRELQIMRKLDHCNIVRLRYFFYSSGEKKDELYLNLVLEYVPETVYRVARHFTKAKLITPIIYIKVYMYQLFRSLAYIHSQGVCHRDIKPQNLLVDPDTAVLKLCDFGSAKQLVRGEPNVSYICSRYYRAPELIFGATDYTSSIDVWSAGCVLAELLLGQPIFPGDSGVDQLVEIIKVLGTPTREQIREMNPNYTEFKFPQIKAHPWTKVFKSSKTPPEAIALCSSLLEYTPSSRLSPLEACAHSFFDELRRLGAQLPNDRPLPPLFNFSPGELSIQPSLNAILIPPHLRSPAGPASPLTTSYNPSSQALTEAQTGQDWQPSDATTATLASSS
method: Kinobeads elution with test compound, mouse brain lysate, MS
Format: binding
conditionParameters: kinase released from kinobeads by specific elution
measuredProperty: mass spectrometry score, GSK3Aps

> print(dat)
                                   compound                  measuredproperty  reported
1  CC(C)[C@H](CO)Nc1nc(Nc2ccc(C(=O)O)c(Cl)c2)c2ncn(C(C)C)c2n1 [Purvalanol B, reference compound]  mass spectrometry score, GSK3Aps       357
2  NCCCn1cc(C2=C(c3c[nH]c4ccccc34)C(=O)NC2=O)c2ccccc21 [CZC1038, Bisindolylmaleimide III, reference compound]  mass spectrometry score, GSK3Aps      1232
3          CCCCCCCCCCCCOS(=O)(=O)[O-].[Na+]  mass spectrometry score, GSK3Aps       585
4  CNC1CC2OC(C)(C1OC)n1c3ccccc3c3c4c(c5c6ccccc6n2c5c31)C(=O)NC4 (stereo not shown)  mass spectrometry score, GSK3Aps       868
5  Cn1c(=O)c(-c2c(Cl)cccc2Cl)cc2cnc(Nc3ccc(CN)cc3)cc21  mass spectrometry score, GSK3Aps       154
6  Oc1ccc(-c2nc(-c3ccc(F)cc3)c(-c3ccncc3)[nH]2)cc1  mass spectrometry score, GSK3Aps       406
7       NCc1ccc(Nc2ncc(F)c(Nc3ccccc3)n2)cc1  mass spectrometry score, GSK3Aps       635

---

testedSystem: FAK (Mus musculus)
Sequence (P34152 whole entry): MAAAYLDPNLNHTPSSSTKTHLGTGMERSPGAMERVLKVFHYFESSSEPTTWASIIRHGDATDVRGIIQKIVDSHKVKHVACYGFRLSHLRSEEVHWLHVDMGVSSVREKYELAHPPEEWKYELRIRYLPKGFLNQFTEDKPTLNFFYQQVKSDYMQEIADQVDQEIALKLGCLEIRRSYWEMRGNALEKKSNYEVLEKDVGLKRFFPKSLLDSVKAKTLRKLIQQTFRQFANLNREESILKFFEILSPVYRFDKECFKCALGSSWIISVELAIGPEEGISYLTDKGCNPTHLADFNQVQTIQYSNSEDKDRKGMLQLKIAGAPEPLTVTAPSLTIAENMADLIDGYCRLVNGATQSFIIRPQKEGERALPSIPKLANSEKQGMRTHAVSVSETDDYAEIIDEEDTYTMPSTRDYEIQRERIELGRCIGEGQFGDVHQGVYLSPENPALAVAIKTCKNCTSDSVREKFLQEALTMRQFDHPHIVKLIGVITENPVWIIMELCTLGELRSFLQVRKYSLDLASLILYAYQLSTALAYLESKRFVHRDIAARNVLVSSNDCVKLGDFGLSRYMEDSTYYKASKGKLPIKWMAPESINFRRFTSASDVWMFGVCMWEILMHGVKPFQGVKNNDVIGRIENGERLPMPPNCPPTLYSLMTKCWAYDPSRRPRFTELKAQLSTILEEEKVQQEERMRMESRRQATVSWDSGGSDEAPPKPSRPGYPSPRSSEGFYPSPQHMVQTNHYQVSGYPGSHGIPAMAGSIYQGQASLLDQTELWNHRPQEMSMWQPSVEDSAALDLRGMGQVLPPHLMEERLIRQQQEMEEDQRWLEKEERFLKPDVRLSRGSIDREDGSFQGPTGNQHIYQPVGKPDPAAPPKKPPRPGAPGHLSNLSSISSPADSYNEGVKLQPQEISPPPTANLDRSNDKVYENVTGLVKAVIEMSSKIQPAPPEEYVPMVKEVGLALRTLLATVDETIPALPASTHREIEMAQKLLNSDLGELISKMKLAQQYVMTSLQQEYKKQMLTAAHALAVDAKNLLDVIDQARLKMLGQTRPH
method: Kinobeads elution with test compound, mouse brain lysate, MS
Assay type: binding
conditionParameters: kinase released from kinobeads by specific elution
measuredProperty: mass spectrometry score, FAK

> print(dat)
                                   molecule              measuredproperty  reported
1  CC(C)[C@H](CO)Nc1nc(Nc2ccc(C(=O)O)c(Cl)c2)c2ncn(C(C)C)c2n1 [Purvalanol B, reference compound]  mass spectrometry score, FAK       269
2    CCCCCCCCCCCCOS(=O)(=O)[O-].[Na+] [SDS]  mass spectrometry score, FAK       160
3  Cn1c(=O)c(-c2c(Cl)cccc2Cl)cc2cnc(Nc3ccc(CN)cc3)cc21 [CZC7324]  mass spectrometry score, FAK       322
4  NCc1ccc(Nc2ncc(F)c(Nc3ccccc3)n2)cc1 [CZC00008004]  mass spectrometry score, FAK       257

---

testedSystem: PYK2 (Mus musculus)
Construct: from tissue; host or cells: mouse brain
Sequence (Q9QVP9 whole entry): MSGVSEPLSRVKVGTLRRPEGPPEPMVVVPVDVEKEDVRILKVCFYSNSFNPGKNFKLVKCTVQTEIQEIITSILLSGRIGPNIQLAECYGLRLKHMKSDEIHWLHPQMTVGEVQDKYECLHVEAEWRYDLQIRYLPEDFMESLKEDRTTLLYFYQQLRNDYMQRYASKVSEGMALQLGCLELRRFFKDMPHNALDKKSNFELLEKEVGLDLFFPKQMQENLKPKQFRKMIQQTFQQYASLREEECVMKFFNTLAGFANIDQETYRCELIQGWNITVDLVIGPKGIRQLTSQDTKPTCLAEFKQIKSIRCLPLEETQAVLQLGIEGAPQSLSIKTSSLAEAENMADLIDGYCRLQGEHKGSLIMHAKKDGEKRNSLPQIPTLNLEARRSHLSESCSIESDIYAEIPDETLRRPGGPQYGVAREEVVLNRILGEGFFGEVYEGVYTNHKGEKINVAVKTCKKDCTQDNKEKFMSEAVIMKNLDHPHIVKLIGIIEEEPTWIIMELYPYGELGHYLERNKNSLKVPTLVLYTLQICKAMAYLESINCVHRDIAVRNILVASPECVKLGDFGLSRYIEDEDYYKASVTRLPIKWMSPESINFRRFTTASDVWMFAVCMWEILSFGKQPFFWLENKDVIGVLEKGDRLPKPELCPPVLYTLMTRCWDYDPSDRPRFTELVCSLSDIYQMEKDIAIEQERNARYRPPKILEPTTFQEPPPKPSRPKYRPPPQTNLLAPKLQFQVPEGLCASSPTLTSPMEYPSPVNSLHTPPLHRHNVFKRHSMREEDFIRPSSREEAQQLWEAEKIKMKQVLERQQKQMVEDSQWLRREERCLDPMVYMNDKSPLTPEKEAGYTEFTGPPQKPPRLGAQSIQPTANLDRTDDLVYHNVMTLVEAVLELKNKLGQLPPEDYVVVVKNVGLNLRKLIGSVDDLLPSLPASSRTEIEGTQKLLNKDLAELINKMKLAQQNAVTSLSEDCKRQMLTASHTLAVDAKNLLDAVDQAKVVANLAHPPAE
method: Kinobeads elution with test compound, mouse brain lysate, MS
Type: binding
conditionParameters: kinase released from kinobeads by specific elution
Rule: mass spectrometry score, PYK2 below 1000 gives Y, anything at or above gives N.

> print(dat)
                                   molecule  categorylabel
1  CC(C)[C@H](CO)Nc1nc(Nc2ccc(C(=O)O)c(Cl)c2)c2ncn(C(C)C)c2n1 [Purvalanol B, reference compound]              N
2       NCc1ccc(Nc2ncc(F)c(Nc3ccccc3)n2)cc1              N
3  NCCCn1cc(C2=C(c3c[nH]c4ccccc34)C(=O)NC2=O)c2ccccc21 [CZC1038, Bisindolylmaleimide III, reference compound]              Y
4  Cn1c(=O)c(-c2c(Cl)cccc2Cl)cc2cnc(Nc3ccc(CN)cc3)cc21              N
5          CCCCCCCCCCCCOS(=O)(=O)[O-].[Na+]              Y
6  CNC1CC2OC(C)(C1OC)n1c3ccccc3c3c4c(c5c6ccccc6n2c5c31)C(=O)NC4 (stereo not drawn)              N

---

testedSystem: Erk2 (Mus musculus)
Construct: […]; from tissue; host or cells: mouse brain
Sequence (P63085 whole entry): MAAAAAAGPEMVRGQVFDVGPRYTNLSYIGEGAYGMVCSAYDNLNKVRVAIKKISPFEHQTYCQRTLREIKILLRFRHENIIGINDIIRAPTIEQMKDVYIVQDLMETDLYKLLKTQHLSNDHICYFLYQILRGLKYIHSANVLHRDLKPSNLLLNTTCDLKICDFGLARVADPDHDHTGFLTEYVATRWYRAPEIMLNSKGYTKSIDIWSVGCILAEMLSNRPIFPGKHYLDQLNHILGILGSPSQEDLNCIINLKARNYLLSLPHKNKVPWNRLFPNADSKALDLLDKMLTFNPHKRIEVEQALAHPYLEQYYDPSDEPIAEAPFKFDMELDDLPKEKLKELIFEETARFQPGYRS
method: Kinobeads elution with test compound, mouse brain lysate, MS
Format: binding
conditionParameters: kinase released from kinobeads by specific elution
Rule: number of identified peptides, Erk2 below 100 gives condition met, anything at or above gives condition not met.

> print(dat)
                                   compound      categorylabel
1  Oc1ccc(-c2nc(-c3ccc(F)cc3)c(-c3ccncc3)[nH]2)cc1      condition met
2  Cn1c(=O)c(-c2c(Cl)cccc2Cl)cc2cnc(Nc3ccc(CN)cc3)cc21  condition not met
3       NCc1ccc(Nc2ncc(F)c(Nc3ccccc3)n2)cc1      condition met
4  CC(C)[C@H](CO)Nc1nc(Nc2ccc(C(=O)O)c(Cl)c2)c2ncn(C(C)C)c2n1 [Purvalanol B, reference compound]  condition not met
5  NCCCn1cc(C2=C(c3c[nH]c4ccccc34)C(=O)NC2=O)c2ccccc21 [CZC1038, Bisindolylmaleimide III, reference compound]      condition met

---

testedSystem: GSK3B (Mus musculus)
Construct: from tissue; host or cells: mouse brain
Sequence (Q9WV60 whole entry): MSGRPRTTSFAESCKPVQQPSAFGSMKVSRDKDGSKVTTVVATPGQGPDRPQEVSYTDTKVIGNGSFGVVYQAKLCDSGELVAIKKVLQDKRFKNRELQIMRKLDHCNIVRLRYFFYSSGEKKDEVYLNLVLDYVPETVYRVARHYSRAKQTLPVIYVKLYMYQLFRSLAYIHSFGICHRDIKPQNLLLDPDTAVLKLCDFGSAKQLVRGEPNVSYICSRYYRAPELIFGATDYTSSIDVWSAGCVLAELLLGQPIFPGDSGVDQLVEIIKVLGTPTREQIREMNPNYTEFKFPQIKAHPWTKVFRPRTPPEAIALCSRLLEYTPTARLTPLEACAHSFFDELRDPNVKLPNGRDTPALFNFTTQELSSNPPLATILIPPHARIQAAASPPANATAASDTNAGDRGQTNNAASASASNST
method: Kinobeads elution with test compound, mouse brain lysate, MS
Type: binding
conditionParameters: kinase released from kinobeads by specific elution
measuredProperty: mass spectrometry score, GSK3B

> print(dat)
                                   compound          testedsystem                measuredproperty  reported
1  CC(C)[C@H](CO)Nc1nc(Nc2ccc(C(=O)O)c(Cl)c2)c2ncn(C(C)C)c2n1 [Purvalanol B, reference compound]  GSK3B (Mus musculus)  mass spectrometry score, GSK3B      1037
2          CCCCCCCCCCCCOS(=O)(=O)[O-].[Na+]  GSK3B (Mus musculus)  mass spectrometry score, GSK3B       763
3  Oc1ccc(-c2nc(-c3ccc(F)cc3)c(-c3ccncc3)[nH]2)cc1  GSK3B (Mus musculus)  mass spectrometry score, GSK3B       743
4  Cn1c(=O)c(-c2c(Cl)cccc2Cl)cc2cnc(Nc3ccc(CN)cc3)cc21  GSK3B (Mus musculus)  mass spectrometry score, GSK3B       789
5       NCc1ccc(Nc2ncc(F)c(Nc3ccccc3)n2)cc1  GSK3B (Mus musculus)  mass spectrometry score, GSK3B       881
6  NCCCn1cc(C2=C(c3c[nH]c4ccccc34)C(=O)NC2=O)c2ccccc21 [CZC1038, Bisindolylmaleimide III, reference compound]  GSK3B (Mus musculus)  mass spectrometry score, GSK3B      1176

---

testedSystem: CaMK2b (Mus musculus)
Sequence (P28652 whole entry): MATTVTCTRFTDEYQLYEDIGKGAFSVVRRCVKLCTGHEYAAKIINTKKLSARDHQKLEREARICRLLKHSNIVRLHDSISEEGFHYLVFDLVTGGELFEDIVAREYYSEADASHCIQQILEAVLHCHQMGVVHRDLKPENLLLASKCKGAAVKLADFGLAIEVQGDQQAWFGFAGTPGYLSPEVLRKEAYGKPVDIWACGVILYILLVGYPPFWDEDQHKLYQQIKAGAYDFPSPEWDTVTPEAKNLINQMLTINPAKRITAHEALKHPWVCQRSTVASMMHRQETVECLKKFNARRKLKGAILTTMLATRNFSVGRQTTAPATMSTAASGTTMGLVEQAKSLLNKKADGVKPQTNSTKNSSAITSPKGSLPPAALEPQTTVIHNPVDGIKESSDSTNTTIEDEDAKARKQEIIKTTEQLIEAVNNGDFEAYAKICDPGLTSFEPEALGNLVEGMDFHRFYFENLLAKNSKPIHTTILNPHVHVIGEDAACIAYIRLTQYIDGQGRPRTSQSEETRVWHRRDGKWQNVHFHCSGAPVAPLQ
method: Kinobeads elution with test compound, mouse brain lysate, MS
Assay type: binding
conditionParameters: kinase released from kinobeads by specific elution
Rule: number of identified peptides, CaMK2b below 20 gives rule met, anything at or above gives rule not met.

> print(dat)
                                   compound           testedsystem  categorylabel
1          CCCCCCCCCCCCOS(=O)(=O)[O-].[Na+]  CaMK2b (Mus musculus)   rule not met
2  NCCCn1cc(C2=C(c3c[nH]c4ccccc34)C(=O)NC2=O)c2ccccc21 [CZC1038, Bisindolylmaleimide III, reference compound]  CaMK2b (Mus musculus)   rule not met
3       NCc1ccc(Nc2ncc(F)c(Nc3ccccc3)n2)cc1  CaMK2b (Mus musculus)   rule not met
4  Cn1c(=O)c(-c2c(Cl)cccc2Cl)cc2cnc(Nc3ccc(CN)cc3)cc21  CaMK2b (Mus musculus)       rule met
5  CNC1CC2OC(C)(C1OC)n1c3ccccc3c3c4c(c5c6ccccc6n2c5c31)C(=O)NC4 (stereo not drawn)  CaMK2b (Mus musculus)   rule not met
6  CC(C)[C@H](CO)Nc1nc(Nc2ccc(C(=O)O)c(Cl)c2)c2ncn(C(C)C)c2n1 [Purvalanol B, reference compound]  CaMK2b (Mus musculus)       rule met

---

testedSystem: CaMK2a (Mus musculus, UniProt P11798)
Construct: […]; from tissue; host or cells: mouse brain
Sequence (P11798 whole entry): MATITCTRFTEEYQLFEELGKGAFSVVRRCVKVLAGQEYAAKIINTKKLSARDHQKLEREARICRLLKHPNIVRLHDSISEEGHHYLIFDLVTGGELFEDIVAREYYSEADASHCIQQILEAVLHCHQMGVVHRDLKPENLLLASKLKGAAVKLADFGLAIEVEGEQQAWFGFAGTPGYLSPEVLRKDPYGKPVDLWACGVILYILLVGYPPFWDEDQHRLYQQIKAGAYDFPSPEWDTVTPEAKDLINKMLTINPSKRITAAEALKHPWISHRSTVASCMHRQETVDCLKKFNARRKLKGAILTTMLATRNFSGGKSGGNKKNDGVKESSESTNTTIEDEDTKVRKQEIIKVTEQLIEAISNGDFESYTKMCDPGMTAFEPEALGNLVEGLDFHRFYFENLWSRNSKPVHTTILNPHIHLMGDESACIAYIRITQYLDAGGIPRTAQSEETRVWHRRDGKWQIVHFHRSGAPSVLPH
method: Kinobeads elution with test compound, mouse brain lysate, MS
Format: binding
conditionParameters: kinase released from kinobeads by specific elution
measuredProperty: mass spectrometry score, CaMK2a

> print(dat)
                                   molecule                 measuredproperty  reported
1  Cn1c(=O)c(-c2c(Cl)cccc2Cl)cc2cnc(Nc3ccc(CN)cc3)cc21  mass spectrometry score, CaMK2a       513
2  CC(C)[C@H](CO)Nc1nc(Nc2ccc(C(=O)O)c(Cl)c2)c2ncn(C(C)C)c2n1 [Purvalanol B, reference compound]  mass spectrometry score, CaMK2a       978
3  NCCCn1cc(C2=C(c3c[nH]c4ccccc34)C(=O)NC2=O)c2ccccc21 [CZC1038, Bisindolylmaleimide III, reference compound]  mass spectrometry score, CaMK2a       911
4       NCc1ccc(Nc2ncc(F)c(Nc3ccccc3)n2)cc1  mass spectrometry score, CaMK2a       966
5          CCCCCCCCCCCCOS(=O)(=O)[O-].[Na+]  mass spectrometry score, CaMK2a       786
6  CNC1CC2OC(C)(C1OC)n1c3ccccc3c3c4c(c5c6ccccc6n2c5c31)C(=O)NC4 (stereo not drawn)  mass spectrometry score, CaMK2a      1027
